Kindly supply the reported EC50 values for the records listed here.
# target.or.system: TRα (Homo sapiens, UniProt P10827)
# Construct: expressed in transfected cells; host or cells: HEK293
# Sequence (P10827 1-410 isoform P10827-2): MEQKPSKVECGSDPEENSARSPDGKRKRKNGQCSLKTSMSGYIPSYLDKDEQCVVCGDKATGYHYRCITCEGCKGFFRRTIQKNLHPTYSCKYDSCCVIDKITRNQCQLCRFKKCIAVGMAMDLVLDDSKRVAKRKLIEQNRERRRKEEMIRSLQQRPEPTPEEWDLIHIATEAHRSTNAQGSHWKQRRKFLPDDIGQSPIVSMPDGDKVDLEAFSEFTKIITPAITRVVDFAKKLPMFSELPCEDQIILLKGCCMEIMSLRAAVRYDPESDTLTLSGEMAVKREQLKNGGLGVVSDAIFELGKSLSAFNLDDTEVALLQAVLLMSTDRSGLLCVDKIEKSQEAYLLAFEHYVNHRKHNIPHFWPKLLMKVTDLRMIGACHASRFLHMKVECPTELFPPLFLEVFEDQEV
# test.protocol: TR reporter-gene assay (Gal4 DBD hybrid, luciferase), TRα
# Format: cell-based
# condition.parameters: HEK293-derived reporter cells, 24 hr treatment; read-out: TRα EC50
# Method: Compounds were tested for thyroid-hormone receptor activity using TR reporter-gene assays. Reporter cells used in the assays express a TR-receptor hybrid (either TRα or TRβ) in which the native N-terminal DNA binding domain (DBD) has been replaced with that of the yeast Gal4 DBD. […] Step 4: At the 24 h assay endpoint, treatment media were discarded and 100 µl/well of luciferase detection reagent was added. Relative luminometer units (RLUs) were quantified from each assay well.

Q: Fill in the recorded EC50 for this compound, with TRα (Homo sapiens, UniProt P10827) as test system: CC(C)c1cc(Cc2c(Cl)cc(/C=C\C(=O)O)cc2Cl)ccc1O [Compound 100]
Ans: 100 to 1000 nM

Q: Fill in the recorded EC50 for this compound, with TRα (Homo sapiens, UniProt P10827) as test system: CC(C)c1cc(Cc2c(Cl)cc(/C=C/C(=O)O)cc2Cl)ccc1O [Compound 86]
Ans: 10 to 100 nM

Q: Fill in the recorded EC50 for this compound, with TRα (Homo sapiens, UniProt P10827) as test system: CONC(=O)Cc1cc(Cl)c(Cc2ccc(O)c(C(C)C)c2F)c(Cl)c1 [Compound 208]
Ans: > 1000 nM

Q: Fill in the recorded EC50 for this compound, with TRα (Homo sapiens, UniProt P10827) as test system: CC(C)c1cc(Cc2c(Cl)cc(CS(=O)(=O)CC(=O)O)cc2Cl)ccc1O [Compound 97]
Ans: > 1000 nM

New cases:
Q: Fill in the recorded EC50 for this compound, with TRα (Homo sapiens, UniProt P10827) as test system: CC(C)c1c(O)ccc(Cc2c(Cl)cc(NCC(=O)O)c(F)c2Cl)c1F [Compound 78]
Ans: < 10 nM

====

# target.or.system: TRα (Homo sapiens)
# Construct: expressed in transfected cells; host or cells: HEK293
# test.protocol: TR reporter-gene assay (Gal4 DBD hybrid, luciferase), TRα
# Assay type: cell-based
# condition.parameters: HEK293-derived reporter cells, 24 hr treatment; read-out: TRα EC50
test.readout: EC50

Illustrative cases are given below, each with its answer.
Q: Please report the recorded EC50 for CC(C)c1c(O)ccc(Cc2c(Cl)cc(SCC(=O)O)cc2Cl)c1F .
Ans: 10 to 100 nM

Q: Please report the recorded EC50 for CC(C)c1cc(Cc2c(Cl)cc(NC(=O)CC(=O)O)cc2Cl)ccc1O .
Ans: 100 to 1000 nM

Q: Please report the recorded EC50 for CC(Oc1cc(Cl)c(Cc2ccc(O)c(C(C)C)c2F)c(Cl)c1)C(=O)O (stereo not shown) .
Ans: 100 to 1000 nM

Batch lookup, EC50 per entry.
1. CC(C)c1cc(Cc2c(Cl)cc(S(=O)(=O)CC(=O)O)cc2Cl)ccc1O
2. CC(C)c1cc(Cc2c(Cl)cc(C(CC(=O)O)C(=O)O)cc2Cl)ccc1O (stereo not shown)
3. Cc1cc(CNCC(=O)O)cc(Cl)c1Cc1ccc(O)c(C(C)C)c1
4. CC(=O)NOCc1cc(Cl)c(Cc2ccc(O)c(C(C)C)c2F)c(Cl)c1

Ans:
> 1000 nM
> 1000 nM
100 to 1000 nM
100 to 1000 nM

Batch lookup, EC50 per entry.
1. CONC(=O)Cc1cc(Cl)c(Cc2ccc(O)c(C(C)C)c2F)c(Cl)c1 [Compound 104]
2. CC(C)c1cc(Cc2c(Cl)cc(NCCC(=O)O)cc2Cl)ccc1O
3. CNC(=O)C(F)(F)Oc1cc(Cl)c(Cc2ccc(O)c(C(C)C)c2)c(Cl)c1
4. CC(C)c1c(O)ccc(Cc2c(Cl)cc(OCCCCC(=O)O)cc2Cl)c1F
5. O=C(O)CNc1cc(Cl)c(Cc2ccc(O)c(-c3cc(OC(F)F)ccc3F)c2F)c(Cl)c1
6. CC(C)c1cc(Cc2c(Cl)cc(C[S+]([O-])CC(=O)O)cc2Cl)ccc1O (stereo not shown) [Compound 210]

Ans:
1: > 1000 nM; 2: 10 to 100 nM; 3: 100 to 1000 nM; 4: 10 to 100 nM; 5: 10 to 100 nM; 6: > 1000 nM
